Field: kon. Provide a value for each of the binders that follow.
tested target: T1, human MYCT1 (hMYCT1) (human, UniProt Q8N699 1-235, limits assumed)
T1 construct: also called MYC Target 1
T1 sequence: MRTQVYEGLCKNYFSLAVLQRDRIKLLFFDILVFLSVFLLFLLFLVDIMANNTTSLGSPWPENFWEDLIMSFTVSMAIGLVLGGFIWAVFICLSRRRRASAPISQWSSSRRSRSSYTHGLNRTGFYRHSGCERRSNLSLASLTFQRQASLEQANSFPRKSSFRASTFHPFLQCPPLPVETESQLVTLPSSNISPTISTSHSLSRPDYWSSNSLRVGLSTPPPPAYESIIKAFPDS
assay overview: SPR full kinetics, multicycle, antibody captured via anti-human Fc IgG, MYCT1 0.625-10 nM as analyte, 1:1 binding model
Give bare numbers, in M⁻¹ s⁻¹.

Field: kon. Fill in for each record below.
1. 11B6-z10-p3-uIgG1K (antibody, V domains shown) VH: EVQLVESGGGLVKPGGSLRLSCAASGFTFSDFGIHWVRQAPGKGLEWVGYISSGSRTIHYADTVKGRFTISRDNAKNSLYLQMNSLRAEDTAVYYCARRDWDPEWLAYWGQGTLVTVSS VL: DVVMTQSPLSLPVTPGEPASISCRSSLSLVHSNAHTYLHWYLQKPGQSPQLLIYKVSNRFSGVPDRFSGSGSGTDFTLKISRVEAEDVGVYFCSQSTHVPFTFGQGTKLEIK
2. 11B6-z16-p3-uIgG1K (antibody, V domains shown, also called hzATN001; ATN001) VH: EVQLVESGGGLVKPGGSLRLSCAASGFTFSDFGIHWVRQAPGKGLEWVGYISSGSRTIHYADTVKGRFTISRDNAKNSLYLQMNSLRAEDTAVYYCARRDWDPEWLAYWGQGTLVTVSS VL: DIVMTQSPLSLPVTPGEPASISCRSSLSLVHSNAHTYLHWYLQKPGQSPKLLIYKVSNRFSGVPDRFSGSGSGTDFTLKISRVEAEDVGVYFCSQSTHVPFTFGQGTKLEIK
3. 11B6-z12-p3-uIgG1K (antibody, V domains shown) VH: EVQLVESGGGLVKPGGSLRLSCAASGFTFSDFGIHWVRQAPGKGLEWVGYISSGSRTIHYADTVKGRFTISRDNAKNSLYLQMNSLRAEDTAIYYCARRDWDPEWLAYWGQGTLVTVSS VL: DVVMTQSPLSLPVTPGEPASISCRSSLSLVHSNAHTYLHWYLQKPGQSPKLLIYKVSNRFSGVPDRFSGSGSGTDFTLKIRRVEAEDVGVYFCSQSTHVPFTFGQGTKLEIK

3.65e+06
3.32e+06
3.35e+06
